Here is a set of compounds with reported IC50 for HPK1 (Homo sapiens (Human)), compiled from the literature.

| compound | IC50 |
| --- | --- |
| COc1cc(-c2cnc3[nH]cc(C(F)(F)F)c3c2)cc([C@@H]2COCCN2)c1C1CCOCC1 | 0.01 to 5 nM |
| Fc1cccc2c1-c1cc3c(n[nH]c3cn1)-c1ccc(N3CCN4CCOC[C@H]4C3)c(c1)OCCCOC2 | ≤ 5 nM |
| CCN1CCC(n2cc(-c3c[nH]c4ncc(-c5ccc(OCCNC(=O)c6ccc(Cl)c(N7CCC(=O)NC7=O)c6)c(C)c5)nc34)cn2)CC1 | 1.2 nM |
| FC(F)(F)c1c[nH]c2ncc(-c3ccc(C4CCOCC4)c([C@@H]4COCCN4)n3)cc12 | 0.01 to 5 nM |
| c1nc2[nH]cc(C3CC3)c2cc1-c1ccc(C2CCOCC2)c(CN2CCCC2)n1 | 0.01 to 5 nM |
| CCc1c[nH]c2ncc(-c3cccc(N4CCN(C(=O)CCCCCCOc5cccc6c5CN(C5CCC(=O)NC5=O)C6=O)CC4=O)c3)c(Cl)c12 (centres unmarked) | 10 to 100 nM |
| CCN1CCC(n2cc(-c3c[nH]c4ncc(-c5cnc(OC(C)CNC(=O)c6ccc(Cl)c(N7CCC(=O)NC7=O)c6)c(C)c5)nc34)cn2)CC1 (centres unmarked) | 27.8 nM |
| CC(C)(O)C#Cc1cccc(COc2cc(-c3cnc(N4CCCCC4)s3)cnc2N)c1 | 100 to 1000 nM |
| O[C@@H]1COc2cc(ccc2N2CCN3CCOC[C@H]3C2)-c2n[nH]c3cnc(cc23)-c2c(F)cccc2OC1 | ≤ 5 nM |
| CCN1CCC(n2cc(-c3c[nH]c4ncc(-c5ccc(OCCCCNC(=O)c6ccc(Cl)c(N7CCC(=O)NC7=O)c6)nc5)nc34)cn2)CC1 | 21.7 nM |
| CCc1c[nH]c2ncc(-c3cccc(N4CCC[C@H](CO)C4=O)c3)c(Cl)c12 | ≤ 10 nM |
| Cc1cc(-c2cnc(N)c(Oc3cnn(C4CCN(C)CC4)c3)n2)cc(C2(NS(=O)(=O)CC(F)(F)F)CC2)c1 | 14 nM |
| Fc1cccc2c1-c1cc3c(n[nH]c3cn1)-c1ccc(N3CCOCC3)c(c1)OCCCO2 | 5 to 50 nM |
| CCc1c[nH]c2ncc(-c3cccc(N4CCN(CC5CCN(c6cc7c(cc6F)C(=O)N(C6CCC(=O)NC6=O)C7=O)CC5)CC4=O)c3)c(Cl)c12 (centres unmarked) | 10 to 100 nM |
| CN1CCN(c2ccc3cc2OCCCCOc2cccc(F)c2-c2cc4c-3n[nH]c4cn2)CC1 | 5 to 50 nM |
| Cc1ccc(C#Cc2c[nH]c3ncc(-c4cccc(N5CCNCC5=O)c4)c(Cl)c23)cn1 | 10 to 100 nM |
| COCC(=O)N1CCN(c2cccc(-c3cnc4[nH]cc(C#Cc5cccnc5)c4c3Cl)c2)C(=O)C1 | ≤ 10 nM |
| O=C1CCC(Nc2ccc(N3CCN(CCCS(=O)(=O)N4CCN(c5cccc(-c6cnc7[nH]cc(C8CC8)c7c6Cl)c5)C(=O)C4)CC3)c(F)c2)C(=O)N1 (centres unmarked) | ≤ 10 nM |
| CN1CCC(c2ncc(-c3cnc(N)c(OCc4cc(C#CC5(O)CC5)ccc4F)c3)s2)CC1 | < 100 nM |
| O=C1NCc2c(-c3cnc4cc(F)ccn34)cnc(Nc3ccc(N4CCC(O)CC4)cc3)c21 | > 100 nM |
| O=C1CNCCN1c1cc(-c2cnc3[nH]cc(C4CC4)c3c2Cl)ccn1 | 10 to 100 nM |
| Cc1cc(-c2cnc(N)c(Oc3cnn(C4CCN(C)CC4)c3)n2)cc(S(N)(=O)=O)c1 | 44 nM |
| CCc1c[nH]c2ncc(-c3cccc(N4CCN(S(=O)(=O)CCCN5CCN(c6ccc7c(c6)C(=O)N(C6CCC(=O)NC6=O)C7=O)CC5)CC4=O)c3)c(Cl)c12 (centres unmarked) | 10 to 100 nM |
| Cc1cc(-c2cnc(N)c(Oc3cnn(C4CCN(C)CC4)c3)n2)cc(C)c1C1(O)COC1 | 39 nM |
| Cn1ccc2c(-c3cnc(Nc4ccc(N5CCC(O)CC5)cc4)c4c3CNC4=O)ccnc21 | ≤ 100 nM |
| Cn1cncc1-c1cnc(Nc2ccc(N3CCC[C@H](C(C)(C)O)C3)cc2)c2c1CNC2=O | ≤ 100 nM |
| Cc1cc(-c2cnc(N)c(Oc3cnn(C4CCN(C)CC4)c3)n2)cc(C2(O)CCCOC2)c1 (centres unmarked) | 34 nM |
| CN1CCC(c2ccnc(-c3cnc(N)c(OCc4cccc(C#CC(C)(C)O)c4)c3)c2)CC1 | 100 to 1000 nM |
| CN1CCC(n2cc(Oc3nc(-c4cc(N5CC6(COC6)C5)cc(C5(O)COC5)c4)cnc3N)cn2)CC1 | 5.5 nM |
